IC50: recorded values
# experimental.system: EGFR L858R (Homo sapiens, UniProt P00533, L858R)
# Construct: purchased SignalChem E10-122BG
# Sequence (P00533 25-1210 L858R): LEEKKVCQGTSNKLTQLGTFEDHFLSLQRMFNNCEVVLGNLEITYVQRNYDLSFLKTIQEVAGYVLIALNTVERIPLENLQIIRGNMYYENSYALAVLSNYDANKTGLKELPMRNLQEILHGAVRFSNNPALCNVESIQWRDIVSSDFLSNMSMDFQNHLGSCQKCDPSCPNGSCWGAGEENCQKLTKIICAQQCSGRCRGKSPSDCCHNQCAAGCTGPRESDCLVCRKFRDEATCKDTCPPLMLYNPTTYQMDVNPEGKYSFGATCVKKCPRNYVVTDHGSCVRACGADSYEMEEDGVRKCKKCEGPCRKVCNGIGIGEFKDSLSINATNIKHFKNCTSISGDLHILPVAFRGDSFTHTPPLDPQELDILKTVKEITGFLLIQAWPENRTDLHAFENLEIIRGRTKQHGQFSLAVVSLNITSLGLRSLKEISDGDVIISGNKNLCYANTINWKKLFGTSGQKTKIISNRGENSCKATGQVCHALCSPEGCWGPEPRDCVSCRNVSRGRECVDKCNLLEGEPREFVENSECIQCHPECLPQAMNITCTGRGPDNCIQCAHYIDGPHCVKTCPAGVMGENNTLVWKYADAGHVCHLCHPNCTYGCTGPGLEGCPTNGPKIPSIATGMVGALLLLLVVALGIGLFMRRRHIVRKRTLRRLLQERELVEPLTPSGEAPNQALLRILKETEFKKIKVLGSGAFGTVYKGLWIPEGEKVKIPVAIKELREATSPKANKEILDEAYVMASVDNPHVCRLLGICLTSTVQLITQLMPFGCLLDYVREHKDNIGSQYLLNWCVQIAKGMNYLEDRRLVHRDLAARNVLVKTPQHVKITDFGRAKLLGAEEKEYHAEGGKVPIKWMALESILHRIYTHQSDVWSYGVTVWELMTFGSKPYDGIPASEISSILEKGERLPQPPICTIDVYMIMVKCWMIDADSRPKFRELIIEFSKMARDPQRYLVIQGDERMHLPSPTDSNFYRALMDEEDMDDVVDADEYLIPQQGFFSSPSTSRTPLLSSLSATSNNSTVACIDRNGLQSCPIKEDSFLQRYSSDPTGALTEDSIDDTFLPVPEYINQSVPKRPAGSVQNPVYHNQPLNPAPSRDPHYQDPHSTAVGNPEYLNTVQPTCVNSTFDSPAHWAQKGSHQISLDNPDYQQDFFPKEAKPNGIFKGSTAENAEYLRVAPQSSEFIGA
# method: Biochemical EGFR inhibition assay (Caliper mobility shift), EGFR L858R
# applied.conditions: biochemical Caliper mobility shift assay, EGFR L858R enzyme; read-out: Enz EGFR L858R IC50

Note to self: IC50 recorded for Cn1cc(-c2cc(OC[C@]34COC[C@H]3C4)c3c(Nc4ccc5ncsc5c4)ncnc3c2)cn1 (single isomer, unassigned) [Example 147] was 10.1 to 50 nM

Note to self: IC50 recorded for C[C@H](CO)Oc1cc(N2CCN(C)CC2)cc2ncnc(Nc3ccc4ncsc4c3)c12 (single isomer, unassigned) [Example 294] was ≤ 10 nM

Reference source: patent US20260207602A1
